target-entity: ALDH2*1/*1 (Homo sapiens)
Construct: His-tag (N); made in house; host or cells: E. coli BL21 (pTrcHis vector)
Sequence (P05091 18-517): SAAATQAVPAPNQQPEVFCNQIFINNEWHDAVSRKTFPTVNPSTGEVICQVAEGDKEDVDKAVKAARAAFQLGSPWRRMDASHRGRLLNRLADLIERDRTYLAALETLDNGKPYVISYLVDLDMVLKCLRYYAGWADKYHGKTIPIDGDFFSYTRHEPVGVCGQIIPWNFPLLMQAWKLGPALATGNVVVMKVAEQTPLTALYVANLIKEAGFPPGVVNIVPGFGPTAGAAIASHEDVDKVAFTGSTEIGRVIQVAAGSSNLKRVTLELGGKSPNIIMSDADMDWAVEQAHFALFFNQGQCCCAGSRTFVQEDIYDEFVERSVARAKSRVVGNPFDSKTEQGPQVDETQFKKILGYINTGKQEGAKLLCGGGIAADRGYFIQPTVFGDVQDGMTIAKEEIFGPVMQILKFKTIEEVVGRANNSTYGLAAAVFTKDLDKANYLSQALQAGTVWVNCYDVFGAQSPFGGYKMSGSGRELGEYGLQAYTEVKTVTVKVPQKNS
experiment-notes: ALDH2 enzymatic activity, NADH accumulation at 340 nm, acetaldehyde substrate, wild type
Type: biochemical
condition-details: 10 μM compound; relative to baseline enzymatic activity (100%)
activity at 10 µM below 300% gives class 0; activity at 10 µM at or above it gives class 1.

COc1ccc(CNC(=O)c2cc(-c3cc(F)ccc3CO)ccc2OCC2CC2)cc1F [AC17] : class 1

Query compound follows.
Data request: Check this compound for activity at 10 µM at or above 300%: COc1ccc(CNC(=O)c2cc(-c3cccnc3CO)ccc2OCC2CC2)cc1F [AC7]
Data returned: class 0

---

target-entity: ALDH2 (Homo sapiens)
Construct: His-tag (N); made in house; host or cells: E. coli BL21
experiment-notes: ALDH2 activity with 20 μM of the compound (Table 3)
Format: biochemical
condition-details: 20 μM compound
Recorded measurements of activity at 20 µM, one per entry

Solved entries:
COc1ccc(CNC(=O)c2cc(-c3ncccc3CO)ccc2OC2CC2)cc1F [AC104] : 150 to 250%
COc1ccc(CNC(=O)c2cc(-c3ccccc3C(=O)O)cnc2OCC2CC2)cc1F [AC75] : 100 to 150%
COc1ccc(CNC(=O)c2cc(-c3ccsc3CO)cnc2OCC2CC2)cc1F [AC25] : > 250%
COc1ccc(CNC(=O)c2cc(-c3cc(F)ccc3CO)ccc2OCC2CC2)cc1F [AC17] : > 250%
COc1ccc(CNC(=O)c2cc(-c3ncccc3CO)ccc2OC2CCC2)cc1F [AC106] : 150 to 250%
COc1ccc(CNC(=O)c2cc(-c3ccccc3CCC(C)=O)cnc2OCC2CC2)cc1F [AC81] : 100 to 150%

activity at 20 µM reported for this compound COc1ccc(CNC(=O)c2cc(-c3cnccc3CO)ccc2OCC2CC2)cc1F [AC5] : > 250%

The compound listed as CCNC(=O)c1ccccc1-c1cnc(OCC2CC2)c(C(=O)NCc2ccc(OC)c(F)c2)c1 [AC80] shows activity at 20 µM equal to 100 to 150%

Noted for COc1ccc(CNC(=O)c2cc(-c3cnn(C)c3CO)ccc2OCC2CC2)cc1F [AC33] : its activity at 20 µM reads > 250%

Just so you know, measured activity at 20 µM for CNCc1ccccc1-c1cnc(OCC2CC2)c(C(=O)NCc2ccc(OC)c(F)c2)c1 [AC70] came out at 100 to 150%

Value of measured activity at 20 µM for the entry COc1ccc(CNC(=O)c2cc(-c3ccccc3OC)cnc2OCC2CC2)cc1F [AC74] : 100 to 150%

Entry O=C(NCc1ccccc1)c1cc(-c2ccccc2CO)cnc1OCC1CC1 [AC55] — recorded activity at 20 µM = 100 to 150%

---

target-entity: ALDH2*1/*2 (Homo sapiens, UniProt P05091, E504K)
Construct: His-tag; made in house; host or cells: E. coli BL21 (pETDuet-1 co-expression)
experiment-notes: ALDH2 enzymatic activity, NADH accumulation at 340 nm, acetaldehyde substrate, heterozygous form
Format: biochemical
condition-details: 5 μM compound; relative to baseline enzymatic activity (100%)
Let's look at some compounds and their measured activity at 5 µM.
All answers are understood in %, so give the number only.

get_value(item= `COc1ccc(CNC(=O)c2cc(-c3cscc3CO)cnc2OCC2CC2)cc1F` , readout=activity at 5 µM) returns 234

The reported value for `COc1ccc(CNC(=O)c2cc(-c3c(F)cccc3CO)cnc2OCC2CC2)cc1F` in terms of activity at 5 µM is 163

Record `COc1ccc(CNC(=O)c2cc(-c3cccnc3CO)ccc2OCC2CC2)cc1F` . Reported activity at 5 µM: 244

Data point: `COc1ccc(CNC(=O)c2cc(-c3c(CO)cccc3N(C)C)cnc2OCC2CC2)cc1F` ; activity at 5 µM = 129

---

activity at 20 µM listing for selected molecules.
target-entity: ALDH2*1/*2 (Homo sapiens, UniProt P05091, E504K)
Construct: His-tag; made in house; host or cells: E. coli BL21 (pETDuet-1 co-expression)
experiment-notes: ALDH2 enzymatic activity, NADH accumulation at 340 nm, acetaldehyde substrate, heterozygous form
Format: biochemical
condition-details: 20 μM compound; relative to baseline enzymatic activity (100%)
Could you give me the number in %? Just the number is fine.

Solved entries (count: 2):
COc1ccc(CNC(=O)c2cc(-c3c[n+]([O-])ccc3CO)ccc2OCC2CC2)cc1F [AC13] : 296
COc1ccc(CNC(=O)c2cc(-c3sccc3CO)cnc2OCC2CC2)cc1F [AC26] : 281

Consider the record given below.
// activity at 20 µM value for COc1ccc(CNC(=O)c2cc(-c3ccccc3CO)ncc2OCC2CC2)cc1F [AC3] : 376

---

target-entity: ALDH2 (Homo sapiens)
Construct: His-tag (N); made in house; host or cells: E. coli BL21
experiment-notes: ALDH2 activity with 20 μM of the compound (Table 3)
Type: biochemical
condition-details: 20 μM compound
value-kind: activity at 20 µM

Below, 2 molecules whose answers are already recorded.
COc1ccc(CNC(=O)c2cc(-c3ccc(F)cc3CO)cnc2OCC2CC2)cc1F : > 250%
COc1ccc(CNC(=O)c2cc(-c3cnccc3CO)ccc2OC)cc1F : 150 to 250%

Form field activity at 20 µM, entry `COc1ccc(CNC(=O)c2cc(-c3c[n+]([O-])ccc3CO)ccc2OCC2CC2)cc1F` : 150 to 250%

// `CCOc1ccc(-c2cnccc2CO)cc1C(=O)NCc1ccc(OC)c(F)c1` : activity at 20 µM value = 150 to 250%

// `Cc1ccc(CNC(=O)c2cc(-c3ccccc3CO)cnc2OCC2CC2)cc1` : activity at 20 µM value = 100 to 150%

// sample `COc1ccc(CNC(=O)c2cc(-c3ccccc3O)ccc2OCC2CC2)cc1F` , its activity at 20 µM was 100 to 150%

Entry `COc1ccc(CNC(=O)c2cc(-c3cnccc3CO)ccc2OC2CCC2)cc1F` ; activity at 20 µM = 150 to 250%

Recorded result, `O=C(NCc1cc2c(cc1Cl)OCO2)c1cc(-c2ncccc2CO)ccc1OCC1CC1` , activity at 20 µM: 100 to 150%

---

target-entity: ALDH2*1/*2 (Homo sapiens, UniProt P05091, E504K)
Construct: His-tag; made in house; host or cells: E. coli BL21 (pETDuet-1 co-expression)
Sequence (P05091 18-517): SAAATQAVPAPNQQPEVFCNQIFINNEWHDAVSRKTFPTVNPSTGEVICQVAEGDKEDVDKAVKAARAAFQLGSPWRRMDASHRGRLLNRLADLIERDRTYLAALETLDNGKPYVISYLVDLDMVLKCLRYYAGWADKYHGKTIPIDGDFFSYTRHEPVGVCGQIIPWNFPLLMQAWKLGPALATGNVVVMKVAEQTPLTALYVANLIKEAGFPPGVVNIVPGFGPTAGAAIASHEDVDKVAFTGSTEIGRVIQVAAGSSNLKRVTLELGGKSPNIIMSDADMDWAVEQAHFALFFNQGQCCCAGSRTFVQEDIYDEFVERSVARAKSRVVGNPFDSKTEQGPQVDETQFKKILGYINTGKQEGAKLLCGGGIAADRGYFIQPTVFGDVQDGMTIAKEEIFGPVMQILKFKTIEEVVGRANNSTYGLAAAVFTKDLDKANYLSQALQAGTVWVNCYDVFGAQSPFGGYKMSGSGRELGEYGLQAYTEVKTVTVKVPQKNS
Sequence (P05091 18-517 E504K): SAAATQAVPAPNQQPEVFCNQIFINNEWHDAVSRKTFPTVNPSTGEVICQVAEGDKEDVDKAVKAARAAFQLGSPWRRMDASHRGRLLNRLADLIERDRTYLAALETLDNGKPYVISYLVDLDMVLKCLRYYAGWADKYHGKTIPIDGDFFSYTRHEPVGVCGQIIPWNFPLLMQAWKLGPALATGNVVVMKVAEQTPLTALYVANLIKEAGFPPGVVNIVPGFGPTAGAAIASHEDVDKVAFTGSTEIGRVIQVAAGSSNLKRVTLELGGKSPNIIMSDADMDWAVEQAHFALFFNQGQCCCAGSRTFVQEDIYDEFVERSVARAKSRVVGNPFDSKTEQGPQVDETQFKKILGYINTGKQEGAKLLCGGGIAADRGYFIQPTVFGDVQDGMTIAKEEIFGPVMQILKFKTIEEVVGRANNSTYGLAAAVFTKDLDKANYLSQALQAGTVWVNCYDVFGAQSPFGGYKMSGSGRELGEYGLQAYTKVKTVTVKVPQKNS
experiment-notes: ALDH2 enzymatic activity, NADH accumulation at 340 nm, acetaldehyde substrate, heterozygous form
Type: biochemical
condition-details: 10 μM compound; relative to baseline enzymatic activity (100%)
value-kind: activity at 10 µM (%)
Write the answer as a number in %, unit excluded.

Examples from the recorded data:
COc1ccc(CNC(=O)c2cc(-c3c(CO)ccc[n+]3[O-])ccc2OCC2CC2)cc1F : 157
COc1ccc(CNC(=O)c2cc(-c3cccc(F)c3CO)cnc2OCC2CC2)cc1F : 172
COc1ccc(CNC(=O)c2cc(-c3sccc3CO)ccc2OCC2CC2)cc1F : 338
COc1ccc(CNC(=O)c2cc(-c3c(F)cccc3CO)ccc2OCC2CC2)cc1F : 253
COc1ccc(CNC(=O)c2cc(-c3ncccc3CO)ccc2OCC2CC2)cc1F : 281

Please examine the following record next.
compound `COc1ccc(CNC(=O)c2cc(-c3ccccc3CO)ncc2OCC2CC2)cc1F` , activity at 10 µM observed: 310
